# Assay method text: ATG_ISRE_CIS: Attagene CIS-FACTORIAL HepG2 Assay for human Interferon Regulatory Factor 1 (IRF1) binding to an Interferon-Stimulated Response Element (ISRE) (AID 2282948)
# Applied conditions: HepG2 ISRE cis-reporter (Attagene), mRNA transcription readout; actives raise or lower the signal
# Protocol: ATG_CIS is a cell-based, multiplexed-readout assay that uses HepG2, a human liver cell line, with measurements taken at 24 hours after chemical dosing in a 24-well plate.ATG_ISRE_CIS is one of 52 assay component(s) measured or calculated from the ATG_CIS assay. […] This assay endpoint, ATG_ISRE_CIS, was analyzed with bidirectional fitting relative to DMSO as the negative control and baseline of activity. […]
The source made the active and inactive calls. How the source made its calls: active means hit-call score of the fitted dose curve at least 0.9, where 1 is the maximum; inactive means score below 0.9.
Hello, when you answer, please use one of the following outcomes: 1 for active, 0 for inactive

Entry COC(=O)CC(C(C)=O)C(=O)OC (configuration not stated) : call = ? 0

Entry O=C(NO)c1ccccc1 : call = ? 1

Entry O=C(CCCN1CCC(O)(c2ccc(Cl)cc2)CC1)c1ccc(F)cc1 : call = ? 0

Entry C=CC(=C)CC/C=C(\C)CCC=C(C)C : call = ? 0

Entry O=C1OC(=O)c2cc(-c3ccc4c(c3)C(=O)OC4=O)ccc21 : call = ? 0

Entry CCCCc1ccc2ccccc2c1S(=O)(=O)O : call = ? 0

Entry C=Cc1ccc(O)c(OC)c1 : call = ? 0

====

# Assay method text: ATG_MRE_CIS: Attagene CIS-FACTORIAL HepG2 Assay for human Metal Responsive Element (MRE) (AID 2282954)
# Applied conditions: HepG2 MRE cis-reporter transcription, Attagene multiplex; actives raise or lower the signal
Active and inactive are the calls of the source. The calls were made as follows: active = hit-call score of the fitted dose curve at least 0.9, where 1 is the maximum; inactive = score below 0.9.
Assay readout: AC50

{"Compound": "CCOC(OCC)C(=O)c1ccccc1", "Assay readout": "AC50", "Value observed": "inactive"}
{"Compound": "Cc1ccc(S(=O)(=O)O)cc1", "Assay readout": "AC50", "Value observed": "inactive"}
{"Compound": "O=C(NCc1ncc(C(F)(F)F)cc1Cl)c1c(Cl)cccc1Cl", "Assay readout": "AC50", "Value observed": "inactive"}
{"Compound": "CCC(=O)C=Cc1ccc(OC)cc1", "Assay readout": "AC50", "Value observed": "65.4 µM (active)"}
{"Compound": "Cc1cc(Cc2cc(C)cc(C(C)(C)C)c2O)c(O)c(C(C)(C)C)c1", "Assay readout": "AC50", "Value observed": "inactive"}
{"Compound": "O=S(=O)(O)c1ccc2cc(O)ccc2c1", "Assay readout": "AC50", "Value observed": "inactive"}

Item under review: Oc1c(Cl)cc(Cl)cc1Sc1cc(Cl)cc(Cl)c1O . Reported AC50? 11.5 µM (active)

Item under review: CCCCCCCCCCCCCCCC(=O)OC . Reported AC50? inactive

Item under review: O=C(F)C(F)(F)C(F)(F)C(F)(F)C(F)F . Reported AC50? inactive

Item under review: CCO[Si](CCC1CCC2OC2C1)(OCC)OCC (stereo not drawn) . Reported AC50? inactive

Item under review: O=C(O)CN(CCCN(CC(=O)O)CC(=O)O)CC(=O)O . Reported AC50? inactive

Item under review: OCC1CCC(CO)CC1 (stereo not drawn) . Reported AC50? inactive

Item under review: Brc1cc(Br)c(Oc2c(Br)cc(Br)c(Br)c2Br)cc1Br . Reported AC50? inactive

====

# Tested system: Luciferin 4-monooxygenase (Photinus pyralis)
# Assay method text: CCTE_Simmons_QuantiLum_inhib_2: CCTE's Firefly Luciferase Inhibition Assay, Simmons Lab (AID 2283767)
Inconclusive results are not listed. The source made the active and inactive calls. Rule for the calls: active = hit-call score of the fitted dose curve at least 0.9, where 1 is the maximum; inconclusive = response in the unintended direction; inactive = score below 0.9.
Hello, when you answer, please use one of the following outcomes: YES (active), NO (inactive)

Entry CCCCCCCCCCCC : call = ? NO

Entry C[C@]12CC[C@@H]3c4ccc(O)cc4CC[C@H]3[C@@H]1C[C@@H](O)[C@@H]2O : call = ? NO

Entry CCc1cccc(CC)c1N(COC)C(=O)CS(=O)(=O)O : call = ? NO

Entry COc1cc([N+](=O)[O-])ccc1N : call = ? NO

Entry O=C1OC2(c3ccccc31)c1cc(I)c(O)c(I)c1Oc1c2cc(I)c(O)c1I : call = ? YES

Entry CCCCCCc1ccc(N)cc1 : call = ? YES

Entry Cc1[nH]nc2c1N=C(c1ccccc1Cl)c1cc([N+](=O)[O-])ccc1N2 : call = ? YES

Entry Cc1cc(Cc2cc(C)cc(C(C)(C)C)c2O)c(O)c(C(C)(C)C)c1 : call = ? NO

====

# Assay method text: ATG_FoxO_CIS: Attagene CIS-FACTORIAL HepG2 Assay for human Forkhead box O (FoxO) (AID 2282943)
# Applied conditions: HepG2 Attagene cis-reporter, FoxO element, mRNA; actives raise or lower the signal
The source made the active and inactive calls. The calls were made as follows: active = hit-call score of the fitted dose curve at least 0.9, where 1 is the maximum; inactive = score below 0.9.
Assay readout: AC50

{"Molecule": "FC(F)(F)C(F)(F)C(F)(F)C(F)(F)I", "AC50": "inactive"}
{"Molecule": "O=S(=O)(O)c1ccc2cc(O)ccc2c1", "AC50": "inactive"}
{"Molecule": "C[C@]12CC[C@@H]3c4ccc(O)cc4CC[C@H]3[C@@H]1C[C@@H](O)[C@@H]2O", "AC50": "inactive"}
{"Molecule": "CCCCC(CC)C(=O)O (stereo unspecified)", "AC50": "inactive"}
{"Molecule": "CCOC(C)=O", "AC50": "inactive"}
{"Molecule": "c1cc[nH]c1", "AC50": "inactive"}
{"Molecule": "Cc1cc(C(C)(C)C)c(O)c(C(C)(C)C)c1", "AC50": "inactive"}
{"Molecule": "Nc1cc(Cl)c(-c2cc(Cl)c(N)cc2Cl)cc1Cl", "AC50": "inactive"}

Item under review: COc1ccccc1NC(=O)c1cc2ccccc2cc1O . Reported AC50? 100 µM (active)

Item under review: CCN(CCC#N)c1ccccc1 . Reported AC50? inactive

Item under review: O=C(F)C(F)(F)C(F)(F)C(F)(F)C(=O)F . Reported AC50? inactive

Item under review: CC(O)COc1ccccc1 (stereo unspecified) . Reported AC50? inactive

Item under review: COc1cc(OC)nc(NC(=O)NS(=O)(=O)Nc2ccccc2C(=O)N(C)C)n1 . Reported AC50? inactive

Item under review: FC(F)(F)C1(F)C(F)(F)C(F)(F)C(F)(F)C(F)(C(F)(F)F)C1(F)F (stereo unspecified) . Reported AC50? inactive

Item under review: CCCC=O . Reported AC50? inactive

Item under review: C=CC(=C)CC/C=C(\C)CCC=C(C)C . Reported AC50? inactive

Item under review: Cc1cc(C(=C2C=CC(=Nc3ccc(S(=O)(=O)O)cc3)C=C2)c2ccc(Nc3ccc(S(=O)(=O)O)cc3)cc2)cc(S(=O)(=O)O)c1N . Reported AC50? inactive

====

# Assay method text: ACEA_ER_AUC_viability: ACEA Biosciences xCELLigence Real-Time Cell Analysis on Estrogen Receptor Agonism for Viability (AID 2283782);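 further: continuous compound exposure with impedance area under curve over 80 h; hit means loss of impedance signal meaning reduced cell growth or viability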
Inconclusive results are not listed. Active and inactive are the calls of the source. How the source made its calls: active means hit-call score of the fitted dose curve at least 0.9, where 1 is the maximum; inconclusive means response in the unintended direction; inactive means score below 0.9.
Hello, when you answer, please use one of the following outcomes: y (active), n (inactive)

Entry Cc1ccc(C(=O)c2ccccc2)cc1 : call = ? y

Entry O=C(O)CCC(F)(F)C(F)(F)C(F)(F)C(F)(F)C(F)(F)C(F)(F)F : call = ? n

Entry Cc1ccc(S(=O)(=O)O)cc1 : call = ? n

Entry CCC(=O)O : call = ? n

Entry O=C1C=CC(=O)N1c1cccc(N2C(=O)C=CC2=O)c1 : call = ? y

Entry CC(C)(O)C(=O)c1ccccc1 : call = ? n

Entry COc1ccc(C#N)cc1 : call = ? y

Entry CNNCc1ccc(C(=O)NC(C)C)cc1 : call = ? n

Entry C=CCOCC(CO)(CO)CO : call = ? n

Entry O=C1c2ccc(O)c(O)c2C(=O)c2c(O)ccc(O)c21 : call = ? y

Entry COc1cc([N+](=O)[O-])ccc1N : call = ? n

Entry CCCCC(CC)C(=O)O (stereo not given) : call = ? n

Entry c1ccc2c(c1)CCC2 : call = ? n

Entry NS(=O)(=O)O : call = ? n

Entry Clc1ccc2c(Cl)ccnc2c1 : call = ? n

====

# Tested on: TTR (gene 7276)
# Assay method text: CCTE_GLTED_hTTR_0.125uM: CCTE's human Transthyretin (hTTR) Inhibition Assay, with 0.125uM TTR, Great Lakes Toxicology and Ecology Division (GLTED) Lab (AID 2284431);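 further: hits lower the fluorescence signal relative to DMSO baseline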
Calls of active or inactive are those of the source. How the source made its calls: active means hit-call score of the fitted dose curve at least 0.9, where 1 is the maximum; inactive means score below 0.9.
Assay readout: AC50

Item under review: CCCCCCCCCC=CCC1CC(=O)OC1=O (centres undefined) . Reported AC50? 7.87 µM (active)

Item under review: CCC(C)c1ccccc1O (centres undefined) . Reported AC50? 22.4 µM (active)

Item under review: CCCCCCCCCCCC(=O)O . Reported AC50? 3.05 µM (active)

Item under review: COc1cc([N+](=O)[O-])ccc1N . Reported AC50? 14.9 µM (active)
